target: D-2 receptor expressed in CHO cells (Rattus norvegicus, UniProt P61169); construct: expressed in transfected cells; experiment: Inhibition of 125I-iodosulpride binding to membranes of transfected CHO cells (D-2)
Sequence (P61169 whole entry): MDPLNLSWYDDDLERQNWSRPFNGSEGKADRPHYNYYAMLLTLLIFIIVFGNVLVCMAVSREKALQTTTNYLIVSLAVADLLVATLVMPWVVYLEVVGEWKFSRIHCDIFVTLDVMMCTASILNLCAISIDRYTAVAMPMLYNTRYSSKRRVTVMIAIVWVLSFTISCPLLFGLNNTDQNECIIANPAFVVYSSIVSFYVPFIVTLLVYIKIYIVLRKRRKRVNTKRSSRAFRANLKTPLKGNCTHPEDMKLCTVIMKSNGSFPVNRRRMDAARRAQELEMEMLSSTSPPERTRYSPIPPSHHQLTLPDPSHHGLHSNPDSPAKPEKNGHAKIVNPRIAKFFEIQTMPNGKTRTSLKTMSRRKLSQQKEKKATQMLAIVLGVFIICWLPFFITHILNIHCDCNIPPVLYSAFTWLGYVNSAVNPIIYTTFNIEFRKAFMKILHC
Quantity Kind: pKi
Worth noting: pKi values are minus log10 of concentrations stated in mol/L.

*Q* Look up pKi for this molecule: CCCN[C@@H]1CCc2c(OC)cccc2[C@@H]1C [(+)AJ 76]
*A* 6.57

***
*Q* Look up pKi for this molecule: CCCN(CCC)[C@@H]1CCc2c(OC)cccc2[C@@H]1C [(+)UH 232]
*A* 7.40

----------
biological target: D-3 receptor expressed in CHO cells (Rattus norvegicus, UniProt P19020); construct: expressed in transfected cells; experiment: Inhibition of 125I-iodosulpride binding to membranes of transfected CHO cells (D-3)
Sequence (P19020 whole entry): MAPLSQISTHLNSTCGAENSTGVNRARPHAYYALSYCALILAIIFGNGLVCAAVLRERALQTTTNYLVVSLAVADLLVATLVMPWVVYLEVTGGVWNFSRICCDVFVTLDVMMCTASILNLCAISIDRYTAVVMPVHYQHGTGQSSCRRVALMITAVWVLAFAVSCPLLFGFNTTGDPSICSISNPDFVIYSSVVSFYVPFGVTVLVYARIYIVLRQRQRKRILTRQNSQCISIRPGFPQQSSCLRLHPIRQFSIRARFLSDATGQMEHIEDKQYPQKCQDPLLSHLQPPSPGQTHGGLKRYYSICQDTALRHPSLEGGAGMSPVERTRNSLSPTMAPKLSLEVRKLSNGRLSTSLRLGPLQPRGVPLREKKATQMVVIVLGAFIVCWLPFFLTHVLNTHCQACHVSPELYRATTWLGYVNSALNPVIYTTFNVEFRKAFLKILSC
Quantity Kind: pKi
Worth noting: pKi values are minus log10 of concentrations stated in mol/L.

*Q* Look up pKi for this molecule: CCCN(CCC)[C@@H]1CCc2c(OC)cccc2[C@@H]1C [(+)UH 232]
*A* 8.04

***
*Q* Look up pKi for this molecule: Oc1cc2c(cc1O)C(c1ccccc1)CNCC2 (centres unmarked) [SKF 38393]
*A* 5.30

----------
Target: D-3 receptor expressed in CHO cells (Rattus norvegicus, UniProt P19020)
Construct: expressed in transfected cells
Assay: Inhibition of 125I-iodosulpride binding to membranes of transfected CHO cells (D-3)
Details: read-out: Ki Value D-3 receptor
Excerpt: As far as the measurement of the affinity of the agonists or antagonists towards the polypeptides of the invention is concerned, it may be made under the following conditions: The terms agonists and antagonists refer to the actions of the medicines on the D-2 receptors. […]
Quantity Kind: Ki

*Q* Look up Ki for this molecule: CN1CCc2cccc3c2[C@H]1Cc1ccc(O)c(O)c1-3
*A* 20 nM

----------
biological target: D-3 receptor expressed in CHO cells (Rattus norvegicus, UniProt P19020); construct: expressed in transfected cells; assay: Inhibition of 125I-iodosulpride binding to membranes of transfected CHO cells (D-3); conditions: competition with 125I-iodosulpride, CHO cell membranes; mean ± standard deviation, 2-3 experiments; read-out: Ki Value D-3 receptor
In this section, each of the molecules is paired with its reported pKi.
Worth noting: pKi values are minus log10 of concentrations stated in mol/L.

Reference set, count: 3
*Q* Param readout = pKi; param system = D-3 receptor expressed in CHO cells (Rattus norvegicus, UniProt P19020); param query = CCCN[C@@H]1CCc2c(OC)cccc2[C@@H]1C [(+)AJ 76] ; response: value
*A* 7.04

*Q* Param readout = pKi; param system = D-3 receptor expressed in CHO cells (Rattus norvegicus, UniProt P19020); param query = CN1CCN(CCCN2c3ccccc3Sc3ccc(S(=O)(=O)N(C)C)cc32)CC1 ; response: value
*A* 8.77

*Q* Param readout = pKi; param system = D-3 receptor expressed in CHO cells (Rattus norvegicus, UniProt P19020); param query = CC(C)C[C@H]1C(=O)N2CCC[C@H]2[C@]2(O)O[C@](NC(=O)[C@@H]3C=C4c5cccc6[nH]c(Br)c(c56)C[C@H]4N(C)C3)(C(C)C)C(=O)N12 ; response: value
*A* 8.13

***
*Q* Param readout = pKi; param system = D-3 receptor expressed in CHO cells (Rattus norvegicus, UniProt P19020); param query = CCN1CCC[C@H]1CNC(=O)c1c(O)c(Cl)cc(Cl)c1OC [Raclopride] ; response: value
*A* 8.46
